Assay: soluble on expression in E. coli; label from the status in PepcDB or PDB records
measure: soluble on expression in E. coli

1. MTTNLTNSNCVEEYKENGKTKIRIKPFNALIELYHHQTPTGSIKENLDKLENYVKDVVKAKGLAIPTSGAFSNTRGTWFEVMIAIQSWNYRVKRELNDYLIIKMPNVKTFDFRKIFDNETREKLHQLEKSLLTHKQQVRLITSNPDLLIIRQKDLIKSEYNLPINKLTHENIDVALTLFKDIEGKCKWDSLVAGVGLKTSLRPDRRLQLVHEGNILKSLFAHLKMRYWNPKAEFKYYGASSEPVSKADDDALQTAATHTIVNVNSTPERAVDDIFSLTSFEDIDKMLDQIIKK    soluble
2. MSLVTIKDIARNLGISYSTVSRCLNNNPNVSEKTKKKVVEEANRLGFHFNVNARNLAKKETNRIGVIFSNNFNHQDTRKFFSDIMDSSINSIETNKYDFIIQPNNNISGDSNVYKMVNGQMVDGLVIVSQSIKKEEYDFLKDNNFPHVFIYFKPSFIGEVDNFFWDDNVYGGYIATKHLIDHGHKDIITVTSDDKSSKMHEDRTKGYLNAMEEANLKTEVIKSKMDFESQVEFLEKYIDKIKKASAIFVQQDVPAISIIQELKTTYGINVPEDISIIGYNNIELISYFRSHLSTIDDPREQVIKNGVDSLVNIINKKSTEHIPRKLYPRLIIRNSVKRIKEGHHHHHH    soluble

====

Test: soluble on expression in E. coli; label from the status in PepcDB or PDB records
measure: soluble on expression in E. coli

1) MAHHHHHHMNPMDALIARAAAEERQQAKMKQKSTRVSGESDLDHPSPSAAFPDSVISRGERASILCYVDPAATTTSSNFSVRRLRTFSACPTFKGGMIMRLTMCHDAQHLTVAFESGHIVLARYRDADVIDMADEPGEVCHAGGSMSVARVRNVTRAFADSALACWWSGRRMLACSSEGGMHCYDVSATAEGLLEAHLVWSVTLRKGIGSVFLQRNLVVAGCWDSTLRLYDARDGRLVSILSYQRETINEVRAAPPSIARVAAFGFDVRQPRLYAGQPGALSTKIPACIASNSKAVTQGNLPQFSESPLRETYVAGTPTPHSSSGSLAAEEQLVYLFASASKACTVALWRVDLGLVVEQTAREAIAAQTV    not soluble
2) MSLHEASIALALIDVAGDVLREHGAARASALTVRVGQWSSVVPEALAAAFPACAEGTPLAGARLSIERVPGVGECPQHGPVELEVWRGLRCPLCGAPTPRLLQGDELELDQLELDQLELENLEGHHHHHH    not soluble
3) MAHHHHHHMSLAREKYLKRKRELLENINLIDIGEKISNTGKNEGNSKSDNIKKESRSRDFIKNDNRTRESFKKNDRGEYIDNDRKHLKSNNYNMLSSYNNKDIKNENRDLRKSPYDHRKLNNKNEQDILSNKTKRSSTNLQYNNDYAFVNKENNVLINNSSKMVNSTNNINEYLKDLNNIDINDSLILLFYVCKLLLDMCSKVNMNQSSMNTSVTSVEMLRDMKSKNRKNIKLFKINILNNILIYLSDENVNTLTQGNPNYKDNNFEKRHEEIRIDEKCIDIEHVGINIVIKVIYINNIKKLIFKYLYLINNNFKHDGVGNINMYDGRLNKNEEQNYFTTPLMEHKNINFMNN    not soluble

====

Assay: soluble on expression in E. coli; label from the status in PepcDB or PDB records
measure: soluble on expression in E. coli

1) MLEDMSKDALFYNYYAQWIEVYKKDAIREATMAKYRMTQKWVEKLAPELKVCELTRTAYQKILNDYAKEHERQTTLDFHHQLKGAVMDAVDEGLIERDPTRKAIIKGKTPREKKIKYLNQFELHTLIADLDIKEEPNWDWFILLVAKTGMRFSEALAITPKDFDFGRQTLSISKTWDYKGKGGFLPTKNKSSVRKIQIDWQIVVKFSELIKGLPEDEPIFVGEEKIYNSTVNDALTRHCKACGISEISIHGLRHTHASLLLFAGVSIASVARRLGHASMTTTQKTYLHIIQELENKDVDLVMRTLSGL    soluble
2) MVTFASGDMLADDLGRFDYVVAMDSLIYYTDADIAAALDRLGARTRHSVVFTVAPRTPFLMAFWTMGKLFPRSDRSPVMIPHPFQPLNEATGGRLVKVGRVSRGFYISECLEFRPLEHHHHHH    soluble
3) MLFHLPKLPAELRVSHLNARVNEQRKKIAQTTASKLEFLQLTQQLVKEAKIRKKNNQKIFVLDFKGDIQASAVDQLREEITLILATAKSGKDRVVLRLESPGGMVHGYGLAAAQLVRLRDAGFHLTIVVDKVAASGGYMMACIANEIVSAPFAILGSIGVVAQVPNFNRLLKEHNVDFELYTAGEYKRTVTMFGENTPEGKAKFEEELKQTHALFKHFVEKYRPQLNVEKVATGEHWYGQDALDLNLVDKLQTSDEYLLSLLPQHDVYVITTRKKPTLGERLGLQAAQLADSFIPAVMNKVVESLVNANSHLVQMRDPKILEHHHHHH    not soluble
4) MLTIGGKSFQSRLLLGTGKYPSFDIQKEAVAVSESDILTFAVRRMNIFEASQPNFLEQLDLSKYTLLPNTAGASTAEEAVRIARLAKASGLCDMIKVEVIGCSRSLLPDPVETLKASEQLLEEGFIVLPYTSDDVVLARKLEELGVHAIMPGASPIGSGQGILNPLNLSFIIEQAKVPVIVDAGIGSPKDAAYAMELGADGVLLNTAVSGADDPVKMARAMKLAVEAGRLSYEAGRIPLKQYGTASSPGEGLP    soluble
5) MMYPYVRLFMEMRRARRLDPLPVLGTHRSSHRCLPWDLAPWRELNNGRTLTLFDLGRAPLLVRTGMQRICSEKGWGMTVAGSSVRYRRRVVLMERLEMVSRCLGWDGRFFYMEQSLWRKGDCTSHMLLRAATTTGSGIVPPAEVAAALGAGESPPLPDWAQAWIEADALRPWPPAALEHHHHHH    not soluble
6) MSLKSSFYYHRTMLGDKDKYADLKQRITALYHKHKGRYGYRRMTVALKHLGVHHNHKLIAKLMKQLTLSAKIRRQKYRSYKGQQGKIAKNYLKRRFKASKPHKRWLTDITEFKVGDHKLYLSPILDCYNNEIVSYTLSRRPTYDLVSQMLDKALDKTGKHRHKTLMLHSDQGWHYQMKPFREMLKKHQIKQSMSRKGNCLDNALMEGFFGTLKCETIYIEKPKTIEALERQIHEYIHYYNHERIQLKLKGLSPVQYRTQSLKEGHHHHHH    not soluble
7) MQFSTTPTLEGQSIVEYCGVVTGEAILGANIFRDFFAGIRDIVGGRSGAYEKELRKAREIAFQELGEQAKALGADAVVGIDIDYETVGKDGSMLMVSVSGTAVKTRR    not soluble
8) MERVVINVSGLRFETQMKTLAQFPETLLGDPEKRTQYFDPLRNEYFFDRNRPSFDAILYYYQSGGRLKRPVNVPFDIFTEEVKFYQLG    soluble
9) MTKGSPGDTPDKASDRAARGASDASDASDAWRRWHEQRVATVSAPYGPLALTGTHWLEDHPDGQLPDIPGRWTTDGDAVLLTAGRADGLTVDGRLLDGEARLTADRGPVGAARVARGERRLVVLVREGLWGVRDFDPAAPARRAFRGIAATPYDPRWSVPGRFTPYDTGRRSVRVPNADGRERGLALGGELAFELDGRAHTLQVGVEDDGSLWAVFADATSGSTSYRFRFLRPAAPDAEGRTTVDLNRALLPPCAFADHFVCPFPPPGNTLGARVEAGERELRLEHHHHHH    soluble
10) MSDISEKFWDASIEELKKGYVFDEEKEEYICLACGETFIKGVIYQDNQILYEAEKFVQLHIQNEHTSMFDYLLNMDKKFTGLTDLQKKMVQFFHMGLNDKEIVKEMDGGSTSTIRNHRFTLREKMKQAKVFLALMELSEEKSKVQTKFVPIHRTATMVDDRYNITEEENDEVLKAHFTEGLDGPLSKFPKKQKRKLIILRHLVKKFDSNKKYTEKEVNTVIENVYPDFVTLRRYLIEYGFLDRTADGSQYWVKL    not soluble
11) MGHHHHHHSHMRTYSDKNELKEEVLKSYKKYIAEFNDIPEKLKDLRIDEVDRTPAENLAYQVGWTTLILKWESDEQSGLEVKTPTETFKWNQLGELYQHFTETYASLTIKELTAQLNDNVDAIGNMIDSMSDEVLFKPHMRNWADSATKNAVWEVYKFIHINTVAPFGTFRTKIRKWKKVALK    soluble
12) GAMRIMRPDDANVAGNVHGGTILKMIEEAGAIISTRHCNSQNGERCVAALARVERTDFLSPMCIGEVAHVSAEITYTSKHSVEVQVHVMSENILTGTKKLTNKATLWYVPLSLKNVDKVLEVPPIVYLRQEQEEEGRKRYEAQKLERMETK    soluble
13) MHDTMHKIFGATPPIFSYTPILTMNLCIAKATPNVCHSTGNLCKAEMDNVTSWVYDKTQGLFITGE    not soluble
14) REEDPHEGKIWFHGKISKQEAYNLLMTVGQVCSFLVRPSDNTPGDYSLYFRTNENIQRFKICPTPNNQFMMGGRYYNSIGDIIDHYRKEQIVEGYYLKEPVPMQDQ    soluble
15) GKNYVRSELKRLNHLCRDFRRDEVHAMDKLLFDQLCQIQLLLGTQAEVHIVSGYRSPATNKQLRSKSKGVAKKSYHMSGQAIDFRLDGVSLKKIREAAISLQAGGVGYYPKSQFIHIDTGPVRQWVGA    not soluble
